# target: constitutive RAS GTPAse activity in H358 cells (Homo sapiens, UniProt P01116, G12C)
# Construct: host or cells: H358 human lung cancer cells
# Sequence (P01116 1-188 isoform P01116-2 G12C): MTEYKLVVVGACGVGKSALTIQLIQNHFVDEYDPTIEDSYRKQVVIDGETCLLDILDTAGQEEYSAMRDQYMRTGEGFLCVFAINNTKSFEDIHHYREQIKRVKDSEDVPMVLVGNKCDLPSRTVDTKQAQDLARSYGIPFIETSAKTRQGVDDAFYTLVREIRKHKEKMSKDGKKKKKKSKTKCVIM
# assay procedure: H358 Cellular Active RAS GTPase ELISA
# Format: cell-based
# conditions: 2 hr, read-out: relative IC50
property name: IC50 (nM)

>>> test_value("C=CC(=O)N1CCN(c2ncnc3c(F)c(-c4ccc(F)c5sc(N)nc45)c(Cl)cc23)CC1")
37

====

# Tested on: H2122
# assay procedure: CellTiterGlo Cell Proliferation Assay, H2122
# Type: cell-based
# conditions: Homo sapiens, NCI-H2122, KRas G12C, Lung, 96 hr, read-out: IC50 (μM) in 2 D cell proliferation
property name: IC50

>>> test_value("C=CC(=O)N1CCN(c2ncnc3c(F)c(-c4ccc(F)c5sc(N)nc45)c(Cl)cc23)CC1")
"0.187 µM"
